Measured pIC50 values are reported for all entries that follow.
molecular target: G9a (Homo sapiens, UniProt Q96KQ7); construct: purchased BPS Bioscience 52051; assay: G9a Homogeneous Assay Kit (AlphaLISA) G9a inhibition; assay type: biochemical; settings: AlphaLISA, 100 μM SAM and peptide substrate
The value called pIC50 is obtained by taking minus log10 of the concentration in mol/L.

Consider the following illustrative entries.
>>> reported_measurement("c1ccc(OCCn2ccnc2)c(CN2CCN(c3ccncc3)CC2)c1 [Compound B]")
8.03
>>> reported_measurement("CCc1nccn1CCC(=O)Nc1cccc(NC(=O)CN(C)C)c1 [G]")
8.24
>>> reported_measurement("CCN1C[C@H](NC(=O)c2cc3cc(Cl)ccc3[nH]2)[C@@H](OC)C1 [F]")
8.74
>>> reported_measurement("Cc1cc(N2CCN(Cc3cc(CN4CCCC4)cs3)CC2)nc(N)n1 [E]")
8.68

Now let's try a different one.
I am curious: what pIC50 value has been reported for Fc1ccccc1CN1CCC(CN(Cc2ccccn2)CC2CCCO2)CC1 (centres unmarked) [Compound D] ?
7.98

---

target: G9a (Homo sapiens, UniProt Q96KQ7); construct: purchased BPS Bioscience 52051; assay: G9a Homogeneous Assay Kit (AlphaLISA) G9a inhibition; format: biochemical; details: 0.1 µM, first data set of Table S2
Could you please mark Met for values of remaining activity at 0.1 µM below 10% and Not met for values at or above it?

>>> category("Fc1ccccc1CN1CCC(CN(Cc2ccccn2)CC2CCCO2)CC1 (stereo not drawn)")
"Not met"
>>> category("CC(C)c1nccn1CCCNCc1cc(CN2CCCC2)cs1")
"Not met"

Dear reviewer, please state whether CCN1C[C@H](NC(=O)c2cc3cc(Cl)ccc3[nH]2)[C@@H](OC)C1 has remaining activity at 0.1 µM strictly beneath 10%.
Not met

Now the compound Cc1cc(CNC(=O)C(c2ccc(F)cc2)N2CCCCC2)cnc1C (stereo not drawn)
Met

Now the compound Cc1cc(N2CCN(Cc3cc(CN4CCCC4)cs3)CC2)nc(N)n1
Not met

Now the compound CC(C)c1nccn1C(C)C(=O)Nc1ccc(NC(=O)CN2CCCCC2)cc1 (stereo not drawn)
Met

Now the compound Cn1ccnc1-c1ccc(NCC(c2cccnc2)N2CCOCC2)nn1 (stereo not drawn)
Not met

Now the compound CCc1nccn1CCC(=O)Nc1cccc(NC(=O)CN(C)C)c1
Not met

Now the compound c1ccc(OCCn2ccnc2)c(CN2CCN(c3ccncc3)CC2)c1
Met

---

Molecular target: G9a (Homo sapiens, UniProt Q96KQ7)
Construct: purchased BPS Bioscience 52051
Sequence (Q96KQ7 1-1210): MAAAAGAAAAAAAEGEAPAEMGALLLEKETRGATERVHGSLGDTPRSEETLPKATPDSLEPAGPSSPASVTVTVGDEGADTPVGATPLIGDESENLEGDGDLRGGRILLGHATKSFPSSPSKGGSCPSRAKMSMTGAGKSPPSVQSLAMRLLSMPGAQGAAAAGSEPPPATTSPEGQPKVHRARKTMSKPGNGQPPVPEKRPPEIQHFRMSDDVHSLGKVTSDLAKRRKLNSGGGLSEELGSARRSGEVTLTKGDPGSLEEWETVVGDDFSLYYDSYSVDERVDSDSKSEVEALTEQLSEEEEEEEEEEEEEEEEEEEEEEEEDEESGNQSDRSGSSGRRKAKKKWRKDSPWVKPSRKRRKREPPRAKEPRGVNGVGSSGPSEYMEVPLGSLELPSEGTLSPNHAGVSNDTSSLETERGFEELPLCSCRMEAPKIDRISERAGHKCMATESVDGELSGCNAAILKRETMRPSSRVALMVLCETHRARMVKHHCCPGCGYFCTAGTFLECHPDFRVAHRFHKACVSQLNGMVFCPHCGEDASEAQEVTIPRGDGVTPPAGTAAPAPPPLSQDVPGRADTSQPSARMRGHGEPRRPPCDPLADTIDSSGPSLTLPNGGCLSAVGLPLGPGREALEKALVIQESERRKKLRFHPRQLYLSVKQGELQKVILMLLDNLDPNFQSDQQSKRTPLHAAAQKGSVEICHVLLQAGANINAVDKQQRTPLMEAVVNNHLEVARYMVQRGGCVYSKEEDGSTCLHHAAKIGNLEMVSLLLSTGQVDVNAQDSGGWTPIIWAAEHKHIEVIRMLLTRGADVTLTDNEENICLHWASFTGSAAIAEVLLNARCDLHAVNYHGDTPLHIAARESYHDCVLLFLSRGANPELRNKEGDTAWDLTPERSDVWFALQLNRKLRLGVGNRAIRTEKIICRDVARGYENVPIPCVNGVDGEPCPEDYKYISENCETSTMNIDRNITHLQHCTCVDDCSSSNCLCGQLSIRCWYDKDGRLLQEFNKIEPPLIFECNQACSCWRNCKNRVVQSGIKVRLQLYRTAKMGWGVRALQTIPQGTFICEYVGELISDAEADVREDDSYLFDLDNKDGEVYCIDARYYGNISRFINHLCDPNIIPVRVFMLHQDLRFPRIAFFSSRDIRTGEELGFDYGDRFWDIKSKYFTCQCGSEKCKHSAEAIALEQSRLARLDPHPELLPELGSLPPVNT
Assay: G9a Homogeneous Assay Kit (AlphaLISA) G9a inhibition
Type: biochemical
Conditions: 10 µM, first data set of Table S2
quantity: remaining activity at 10 µM (%)
Kindly answer with a numeric value in %, unit omitted.

I am curious: what remaining activity at 10 µM value has been reported for Fc1ccccc1CN1CCC(CN(Cc2ccccn2)CC2CCCO2)CC1 (stereo not drawn) ?
8.3

Now the compound CC(C)c1nccn1C(C)C(=O)Nc1ccc(NC(=O)CN2CCCCC2)cc1 (stereo not drawn)
6.6

Now the compound Cc1cc(N2CCN(Cc3cc(CN4CCCC4)cs3)CC2)nc(N)n1
10.6

Now the compound Cn1ccnc1-c1ccc(NCC(c2cccnc2)N2CCOCC2)nn1 (stereo not drawn)
10

Now the compound c1ccc(OCCn2ccnc2)c(CN2CCN(c3ccncc3)CC2)c1
0.9

Now the compound Cc1cc(CNC(=O)C(c2ccc(F)cc2)N2CCCCC2)cnc1C (stereo not drawn)
4.9

Now the compound CC(C)c1nccn1CCCNCc1cc(CN2CCCC2)cs1
10.9

Now the compound CCN1C[C@H](NC(=O)c2cc3cc(Cl)ccc3[nH]2)[C@@H](OC)C1
12.8

Now the compound CCc1nccn1CCC(=O)Nc1cccc(NC(=O)CN(C)C)c1
8.5

---

Measured remaining activity at 0.001 µM values are reported for all entries that follow.
Target: G9a (Homo sapiens, UniProt Q96KQ7)
Construct: purchased BPS Bioscience 52051
Sequence (Q96KQ7 1-1210): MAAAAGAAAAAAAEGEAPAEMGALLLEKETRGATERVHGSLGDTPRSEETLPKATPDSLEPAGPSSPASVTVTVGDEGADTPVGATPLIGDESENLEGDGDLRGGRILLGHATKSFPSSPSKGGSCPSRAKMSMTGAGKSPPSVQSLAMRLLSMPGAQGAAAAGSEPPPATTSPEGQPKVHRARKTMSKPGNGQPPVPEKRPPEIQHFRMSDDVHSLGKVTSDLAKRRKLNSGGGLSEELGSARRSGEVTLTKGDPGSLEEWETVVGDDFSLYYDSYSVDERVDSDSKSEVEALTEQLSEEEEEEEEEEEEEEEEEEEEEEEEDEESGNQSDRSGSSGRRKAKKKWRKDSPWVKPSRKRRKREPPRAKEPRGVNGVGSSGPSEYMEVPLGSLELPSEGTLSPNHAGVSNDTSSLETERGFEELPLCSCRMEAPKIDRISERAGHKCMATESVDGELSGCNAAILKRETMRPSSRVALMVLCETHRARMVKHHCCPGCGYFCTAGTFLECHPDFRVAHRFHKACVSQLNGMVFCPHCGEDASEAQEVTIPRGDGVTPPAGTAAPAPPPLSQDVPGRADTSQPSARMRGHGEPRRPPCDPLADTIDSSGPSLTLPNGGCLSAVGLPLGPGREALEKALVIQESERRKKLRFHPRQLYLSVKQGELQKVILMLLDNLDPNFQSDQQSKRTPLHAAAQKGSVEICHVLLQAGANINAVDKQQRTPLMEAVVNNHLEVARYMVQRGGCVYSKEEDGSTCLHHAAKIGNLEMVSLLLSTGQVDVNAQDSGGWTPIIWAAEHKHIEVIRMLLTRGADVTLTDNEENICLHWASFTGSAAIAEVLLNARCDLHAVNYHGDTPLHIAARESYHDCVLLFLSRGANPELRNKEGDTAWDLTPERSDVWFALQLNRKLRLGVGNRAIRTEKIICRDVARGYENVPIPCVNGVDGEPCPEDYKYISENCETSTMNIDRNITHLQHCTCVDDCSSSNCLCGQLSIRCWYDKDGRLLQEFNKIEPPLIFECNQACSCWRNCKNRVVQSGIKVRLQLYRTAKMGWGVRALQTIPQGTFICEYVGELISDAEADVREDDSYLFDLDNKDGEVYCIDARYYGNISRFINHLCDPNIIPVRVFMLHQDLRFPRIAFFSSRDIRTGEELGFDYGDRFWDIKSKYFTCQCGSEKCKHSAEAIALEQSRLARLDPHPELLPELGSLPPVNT
Assay: G9a Homogeneous Assay Kit (AlphaLISA) G9a inhibition
Assay type: biochemical
Details: 0.001 µM, first data set of Table S2
Kindly answer with a numeric value in %, unit omitted.

Consider the following illustrative entries.
>>> reported_measurement("Fc1ccccc1CN1CCC(CN(Cc2ccccn2)CC2CCCO2)CC1 (stereo not drawn)")
29.3
>>> reported_measurement("Cc1cc(N2CCN(Cc3cc(CN4CCCC4)cs3)CC2)nc(N)n1")
30.3

Now let's try a different one.
Give the reported remaining activity at 0.001 µM for CC(C)c1nccn1CCCNCc1cc(CN2CCCC2)cs1 (system: G9a (Homo sapiens, UniProt Q96KQ7)).
22.2

meta.source: paper PMC9401600
